# Procedure Details: in vitro
# Experimental Parameters: human, Caco-2
Reported Property: efflux ratio at 2 h

## Input Field request: efflux ratio at 2 h | item: CC(C)(C)[C@H](c1cc(-c2cc(F)ccc2F)cn1Cc1ccccc1)N(CCC(N)C(F)F)C(=O)CO (stereo partly shown)
## Output 0.5 to 2

## Input Ok, now `CCc1c2c(nc3ccccc13)-c1cc3c(c(=O)n1C2)COC(=O)[C@]3(O)CC`
## Output 0.5 to 2

## Input Ok, now `COC(=O)[C@@H](N)CCN(C(=O)CO)[C@@H](c1cc(-c2cc(F)ccc2F)cn1Cc1ccccc1)C(C)(C)C`
## Output > 2

## Input Ok, now `CC(C)(C)[C@H](c1cc(-c2cc(F)ccc2F)cn1Cc1ccccc1)N(CCCN)C(=O)CO`
## Output > 2
